molecular target: UniProt Q9S446; assay: Inhibition of Staphylococcus aureus SrtA
quantityName: IC50
Be sure to follow the number with its unit.

Below: 3 molecules and their reported IC50.
**Q:** Request the reported IC50 associated with O=C(O)/C=C/c1ccc(O)c(O)c1 [CAFFEIC ACID]
**A:** 860 µM

**Q:** COc1ccc(-c2cc(=O)c3c(O)cc(O)cc3o2)cc1 [ACACETIN] , same question.
**A:** 128 µM

**Q:** COc1cc(/C=C/C(=O)O)ccc1O [FERULATE] , same question.
**A:** 1320 µM

For the next question, use this molecule.
**Q:** Request the reported IC50 associated with COc1c(O)c2c(c3c1O[C@@]1(O)C(C)(C)[C@H](C)O[C@@]31O)C(=O)C(C)=CC2=O
**A:** 23.6 µM

---

Biological target: Sortase A (Staphylococcus aureus, UniProt Q9S446)
Sequence (Q9S446 whole entry): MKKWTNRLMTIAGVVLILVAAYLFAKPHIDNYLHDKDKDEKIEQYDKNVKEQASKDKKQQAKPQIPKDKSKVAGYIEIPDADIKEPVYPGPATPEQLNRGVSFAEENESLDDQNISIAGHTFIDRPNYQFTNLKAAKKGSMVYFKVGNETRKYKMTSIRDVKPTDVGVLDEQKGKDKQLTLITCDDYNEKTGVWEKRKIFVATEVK
Experiment: Inhibition of recombinant Staphylococcus aureus SrtA deltaN59 using Dabcyl-[…]-Edans as substrate preincubated for 20 mins followed by substrate addition and measured after 1 hr by fluorescence based analysis
Residues, ends and D or L forms follow the SMILES beside them.
quantityName: pIC50
When answering, recall that pIC50 equals minus log10 of the concentration in mol/L, and write that number alone.

**Q:** Request the reported pIC50 associated with CC(C)C[C@H](N)C(=O)N1CCC[C@H]1C(=O)N[C@@H](CCCNC(=N)N)C(=O)N[C@@H](CC(=O)O)C(=O)N[C@@H](C)C(=O)O (H-LPRDA-OH)
**A:** 4.97

---

target: Sortase A (Staphylococcus aureus); experiment: Inhibition of recombinant Staphylococcus aureus SrtA using DabcylQALPETGEE-Edans as substrate by FRET assay
Where a name gives a salt, the structure may show the parent alone.
quantityName: pIC50
When answering, recall that pIC50 equals minus log10 of the concentration in mol/L, and write that number alone.

**Q:** Request the reported pIC50 associated with COc1ccc2cc3[n+](cc2c1OC)CCc1cc2c(cc1-3)OCO2 [BERBERINE SULFATE]
**A:** 4.58

---

Each entry below lists one item and its recorded pIC50 value.
Molecular target: Sortase A (Staphylococcus aureus, UniProt Q9S446)
Sequence (Q9S446 whole entry): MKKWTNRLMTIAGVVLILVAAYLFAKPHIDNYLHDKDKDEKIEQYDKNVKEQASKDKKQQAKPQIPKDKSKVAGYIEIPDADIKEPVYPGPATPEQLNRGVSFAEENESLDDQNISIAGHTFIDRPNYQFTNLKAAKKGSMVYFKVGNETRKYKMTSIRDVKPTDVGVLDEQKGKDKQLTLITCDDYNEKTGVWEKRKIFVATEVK
Assay: Inhibition of Staphylococcus aureus SrtA catalytic domain (60 to 206 residues) using Abz-LPETGDap(Dnp)-NH2 as substrate preincubated for 1 hr followed by substrate addition and measured immediately by FRET assay
When answering, recall that pIC50 equals minus log10 of the concentration in mol/L, and write that number alone.

**Q:** Request the reported pIC50 associated with CCOc1c(SSc2cnn(-c3cccc(OC)c3)c(=O)c2OCC)cnn(-c2cccc(OC)c2)c1=O
**A:** 6.21

**Q:** CCOc1c(SSc2cnn(-c3cccc(C(=N)N)c3)c(=O)c2OCC)cnn(-c2cccc(C(=N)N)c2)c1=O , same question.
**A:** 6.27

**Q:** CCOc1c(S)cnn(-c2ccccc2)c1=O , same question.
**A:** 4.46

**Q:** O=c1c(OCCO)c(SSc2cnn(-c3ccccc3)c(=O)c2OCCO)cnn1-c1ccccc1 , same question.
**A:** 6.66

**Q:** O=c1c(OCCCO)c(SSc2cnn(-c3ccccc3)c(=O)c2OCCCO)cnn1-c1ccccc1 , same question.
**A:** 6.08

**Q:** CCOc1c(SSc2cnn(-c3cccc(F)c3)c(=O)c2OCC)cnn(-c2cccc(F)c2)c1=O , same question.
**A:** 6.80

**Q:** O=c1c(OCCO)c(SSc2cnn(-c3cccc(F)c3)c(=O)c2OCCO)cnn1-c1cccc(F)c1 , same question.
**A:** 6.39

For the next question, use this compound.
**Q:** Request the reported pIC50 associated with O=c1c(OCCCO)c(SSc2cnn(-c3cccc(F)c3)c(=O)c2OCCCO)cnn1-c1cccc(F)c1
**A:** 7.70

---

Each entry below lists one item and its recorded IC50 value.
Molecular target: Sortase A (Staphylococcus aureus)
Sequence (Q9S446 whole entry): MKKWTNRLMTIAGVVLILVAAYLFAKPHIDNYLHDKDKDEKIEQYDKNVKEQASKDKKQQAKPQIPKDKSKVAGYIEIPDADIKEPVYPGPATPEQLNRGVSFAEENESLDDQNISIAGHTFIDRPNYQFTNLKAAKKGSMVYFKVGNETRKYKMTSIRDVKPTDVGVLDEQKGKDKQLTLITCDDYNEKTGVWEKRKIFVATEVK
Experiment: Inhibition of recombinant Staphylococcus aureus ATCC 6538p SrtA expressed in Escherichia coli TOP10 using Dabcyl-QALPETGEE-Edans as substrate incubated for 1 hr by fluorometric analysis
State just the number; it will be interpreted in µM.

Below: 3 compounds and their reported IC50.
**Q:** Request the reported IC50 associated with COc1cc2c(cc1O)OC(c1ccccc1)CC2=O (centres undefined)
**A:** 96.1

**Q:** COc1ccc(-c2coc3cc(O)ccc3c2=O)cc1 , same question.
**A:** 74.9

**Q:** O=c1c(O)c(-c2ccc(O)c(O)c2)oc2cc(O)cc(O)c12 , same question.
**A:** 52.7

For the next question, use this compound.
**Q:** Request the reported IC50 associated with O=c1c(O)c(-c2cc(O)c(O)c(O)c2)oc2cc(O)cc(O)c12
**A:** 44

---

target: Sortase A (Staphylococcus aureus); test: Binding affinity to Staphylococcus aureus SrtA (60 to 206 residues) using Dabcyl-Gln-Ala-Leu-Pro-Glu-Thr-Gly-Glu-Glu-Edans as substrate incubated for 12 hrs by fluorescence based analysis
quantityName: Ki
Be sure to follow the number with its unit.

**Q:** Request the reported Ki associated with CC(C)C[C@H](NC(=O)OCc1ccccc1)C(=O)N1CCC[C@H]1C(=O)N[C@@H](C)C(=O)N[C@@H](/C=C/S(=O)(=O)c1ccccc1)[C@@H](C)O
**A:** 9 µM

---

target: Sortase A (Staphylococcus aureus); experiment: Inhibition of Staphylococcus aureus SrtA (60 to 206 residues) using Abz-LPETG-Dap(Dnp)-NH2 as substrate incubated for 1 hr by FRET assay
quantityName: IC50 (µM)
State just the number; it will be interpreted in µM.

**Q:** Request the reported IC50 associated with Clc1ccc(C2Nc3cccc4cccc(c34)N2)cc1
**A:** 89

**Q:** O=[N+]([O-])c1ccc(C2Nc3cccc4cccc(c34)N2)cc1 , same question.
**A:** 80

More entries:
**Q:** Request the reported IC50 associated with O=C(O)COc1ccccc1C1Nc2cccc3cccc(c23)N1
**A:** 47.2

---

biological target: Sortase A (Staphylococcus aureus); test: Inhibition of Staphylococcus aureus SrtA using EDANS-Dabcyl as substrate by FRET assay
Lab note: compare IC50 with 80 µM, writing Fulfilled if less and Not fulfilled if equal or more.

These recorded examples may help you get a feel for the data.
**Q:** Threshold test, IC50 < 80 µM: COc1cc(/C=C/C(=O)CC(=O)/C=C/c2ccc(O)cc2)ccc1O
**A:** Fulfilled

**Q:** O=C(NCCSSCCNC(=O)/C(Cc1ccc(O)c(Br)c1)=N/O)/C(Cc1ccc(O)c(Br)c1)=N/O , same question.
**A:** Fulfilled

**Q:** O=C1N[C@H](c2c[nH]c3cc(Br)ccc23)CN=C1c1c[nH]c2ccccc12 , same question.
**A:** Not fulfilled

**Q:** O=C(/C=C/c1ccc(O)c(O)c1)O[C@@H]1C[C@](O)(C(=O)O)C[C@@H](O)[C@H]1O , same question.
**A:** Not fulfilled

**Q:** O=C(/C=C/c1ccc(O)cc1)CC(=O)/C=C/c1ccc(O)cc1 , same question.
**A:** Not fulfilled

More entries:
**Q:** Threshold test, IC50 < 80 µM: C[C@@H]1O[C@@H](OC2=C(c3ccc(O)c(O)c3)Oc3cc(O)cc(O)c3[C@@H]2O)[C@H](O)[C@H](O)[C@H]1O
**A:** Fulfilled

---

target: Sortase A (Staphylococcus aureus, UniProt Q9S446); experiment: Inhibition of wild type recombinant Staphylococcus aureus ATCC 25904 Sortase A expressed in Escherichia coli BL21 using Dabcyl-QALPETGEE-Edans as substrate incubated for 30 mins followed by substrate addition and measured after 60 mins by FRET assay
quantityName: IC50 (µM)
State just the number; it will be interpreted in µM.

**Q:** Request the reported IC50 associated with COc1ccc(CCc2cc(OC)c(OC)c(OC)c2)cc1O
**A:** 65.7
